inhibition by entry:
ASSAYED TARGET: Tyrosine-protein kinase Yes (Homo sapiens) (UniProt P07947)
Sequence (P07947 2-543 limits assumed): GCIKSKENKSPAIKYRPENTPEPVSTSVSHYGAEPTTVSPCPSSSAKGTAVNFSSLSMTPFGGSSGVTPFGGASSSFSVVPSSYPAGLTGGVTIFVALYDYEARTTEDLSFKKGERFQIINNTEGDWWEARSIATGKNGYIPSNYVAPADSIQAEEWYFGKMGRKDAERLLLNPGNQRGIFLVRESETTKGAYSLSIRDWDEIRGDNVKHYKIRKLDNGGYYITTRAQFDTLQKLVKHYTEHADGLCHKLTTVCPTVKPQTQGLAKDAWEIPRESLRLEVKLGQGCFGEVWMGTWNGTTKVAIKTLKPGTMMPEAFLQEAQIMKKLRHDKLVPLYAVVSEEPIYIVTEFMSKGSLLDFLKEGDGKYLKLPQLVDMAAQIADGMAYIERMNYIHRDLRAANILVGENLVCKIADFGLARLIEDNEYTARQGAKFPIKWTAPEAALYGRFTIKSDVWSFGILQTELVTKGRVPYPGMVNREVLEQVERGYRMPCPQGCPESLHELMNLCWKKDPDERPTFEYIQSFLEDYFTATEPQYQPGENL
ASSAY NAME: Inhibition of YES in human PC3 cell lysates at 10 uM using desthiobiotin-tagged ATP probe AX9989 followed by trypsinization by LC/MS analysis
CONDITION: PC-3

SMILES STRUCTURE | inhibition
O=C(NC1(Cc2ccc(F)cc2)CC1)c1ccc2nc(N[C@H]3CC[C@H](O)CC3)c3nccn3c2c1 | < 35%
O=C(NC1(c2ccccc2)CC1)c1ccc2nc(N[C@H]3CC[C@H](O)CC3)c3nccn3c2c1 | < 35%
CCC[C@@H](NC(=O)c1ccc2nc(N[C@H]3CC[C@H](O)CC3)c3nccn3c2c1)c1ccccc1 | < 35%
O=C(N[C@H](CO)c1ccccc1)c1ccc2nc(N[C@H]3CC[C@H](O)CC3)c3nccn3c2c1 | < 35%
O=C(NC1(c2ccc(F)cc2)CC1)c1ccc2nc(N[C@H]3CC[C@H](O)CC3)c3nccn3c2c1 | < 35%
O=C(O)c1ccc2nc(N[C@H]3CC[C@H](O)CC3)c3nccn3c2c1 | < 35%
NC(=O)c1ccc2nc(N[C@H]3CC[C@H](O)CC3)c3nccn3c2c1 | < 35%
CC[C@@H](NC(=O)c1ccc2nc(N[C@H]3CC[C@H](O)CC3)c3nccn3c2c1)c1ccccc1 | < 35%

Input line: Note inhibition for the compound shown: `C[C@@H](NC(=O)c1ccc2nc(N[C@H]3CC[C@H](O)CC3)c3nccn3c2c1)c1ccccc1`
Output line: < 35%

Input line: Identify measured inhibition corresponding to `CC(C)(NC(=O)c1ccc2nc(N[C@H]3CC[C@H](O)CC3)c3nccn3c2c1)c1ccccc1`
Output line: < 35%

Input line: Query inhibition for `C[C@H](NC(=O)c1ccc2nc(N[C@H]3CC[C@H](O)CC3)c3nccn3c2c1)c1ccccc1`
Output line: < 35%

Input line: Supply measured inhibition of `O=C(NC1(c2ccccc2)CCC1)c1ccc2nc(N[C@H]3CC[C@H](O)CC3)c3nccn3c2c1` in your reply.
Output line: < 35%
